Entry source: patent US20220306762A1

- tested.system: T1, His-tagged mouse CD38 (ACRO Biosystems #CD8-M5223) (mouse, UniProt P56528 45-304)
- T1 construct: bought recombinant protein with His tag; also called Murine
- T1 sequence (looked up): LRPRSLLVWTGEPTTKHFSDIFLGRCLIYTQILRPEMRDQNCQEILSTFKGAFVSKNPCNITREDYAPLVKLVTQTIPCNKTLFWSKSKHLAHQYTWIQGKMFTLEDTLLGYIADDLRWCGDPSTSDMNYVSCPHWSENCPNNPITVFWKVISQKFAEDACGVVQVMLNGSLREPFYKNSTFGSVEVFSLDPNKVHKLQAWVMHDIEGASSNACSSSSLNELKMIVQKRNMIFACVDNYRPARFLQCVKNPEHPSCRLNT
- measurement.description: ELISA, coated His-CD38
Recorded ELISA 1 ug/ml, one value per entry.

binder	ELISA 1 ug/ml
40566p1.C1 (scFv, V domains shown, tested as scFv-Fc supernatant) VH: DVQLVESGGGVVRPGESLRLSCAASGFTFDNYDMTWVRQAPGEGLEWVSFISSRGTFTYYTDSVKGRFTISRDNSKNTLYLQMNSLRAEDTAIYYCTKDSGEYYFFDYWGLGTLVTVSS VL: ETVMTQSPATLSVSPGERATFSCRASQSVNSKLAWYQQKPGQAPRLLIYGASRRATGIPDRFSGSGSGTEFTLTISSLQSEDFAVYYCQQYYDWPPLTFGGGTKVEIK	1.86
40566p1.F1 (scFv, V domains shown, tested as scFv-Fc supernatant; also called 40566p1.Fl) VH: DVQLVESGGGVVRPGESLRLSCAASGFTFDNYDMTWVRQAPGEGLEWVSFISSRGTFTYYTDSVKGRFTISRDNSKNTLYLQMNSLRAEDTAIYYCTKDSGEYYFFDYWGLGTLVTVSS VL: ETVMTQSPATLSVSPGERATFSCRASQSVNGKLAWYQQKPGQAPRLLIYDASRRATGIPDRFSGSGSGTEFTLTISSLQSEDFAVYYCQQYYDWPPLTFGGGTKVEIK	2.17
